Reference for the values: patent US20230391845A1

# measurement target: T1, human glucose-dependent insulinotropic polypeptide receptor (human, UniProt P48546 22-466)
# T1 sequence (looked up): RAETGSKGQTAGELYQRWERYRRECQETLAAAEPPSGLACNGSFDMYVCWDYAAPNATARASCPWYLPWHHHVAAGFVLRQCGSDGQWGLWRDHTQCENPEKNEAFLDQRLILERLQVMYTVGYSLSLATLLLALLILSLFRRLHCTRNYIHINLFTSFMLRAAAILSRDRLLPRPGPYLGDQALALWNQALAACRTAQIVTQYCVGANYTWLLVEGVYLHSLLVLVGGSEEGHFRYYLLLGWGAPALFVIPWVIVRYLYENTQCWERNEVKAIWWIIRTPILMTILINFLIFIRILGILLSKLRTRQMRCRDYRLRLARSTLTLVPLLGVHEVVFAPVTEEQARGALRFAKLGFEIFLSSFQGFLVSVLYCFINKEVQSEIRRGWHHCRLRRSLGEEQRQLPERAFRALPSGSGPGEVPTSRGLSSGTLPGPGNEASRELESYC
# assay: cell-based or functional assay
Where no end group is shown, it is not given here. [ ]: non-standard residue; d: D form. Aib = CC(C)(N)C(=O)O
assay readout: hGIPR CRE Luc EC50 (pM)
Provide the reading as a plain figure in pM.

binder: H[Aib]HGTFTSDYSIYLEKKAA[Aib]EFVQWLLEGGPSSGAPPPS-NH2 (not fully specified (residue 16); printed as H-Aib-HGTFTSDYSIYLE-K[2-[2-[2-[[2-[2-[2-[[(4S)-4-carboxy-4-(19-carboxynonadecanoylamino)butanoyl]amino]ethoxy]ethoxy]acetyl]amino]ethoxy]ethoxy]acetyl]-KAA-Aib-EFVQWLLEGGPSSGAPPPS-NH2) [Compound No. 34]
unit spec: pM
hGIPR CRE Luc EC50 (pM): 8.7

Incoming: Note down hGIPR CRE Luc EC50 (pM) recorded for Y[Aib]QGTFTSDYSIYLDKQAA[Aib]EFVNWLLAGGPSSGAPPPS-NH2 (not fully specified (residue 16); printed as Y-Aib-QGTFTSDYSIYLD-K[2-[2-[2-[[2-[2-[2-[[(4S)-4-carboxy-4-(17-carboxyheptadecanoylamino)butanoyl]amino]ethoxy]ethoxy]acetyl]amino]ethoxy]ethoxy]acetyl]-QAA-Aib-EFVNWLLAGGPSSGAPPPS-NH2) [Compound No. 1]
Outgoing: 23.7
